Target: C. elegans LGC-55 (TA-gated Cl- channel) (Caenorhabditis elegans, UniProt G5EEC1)
Sequence (G5EEC1 entry or part of it): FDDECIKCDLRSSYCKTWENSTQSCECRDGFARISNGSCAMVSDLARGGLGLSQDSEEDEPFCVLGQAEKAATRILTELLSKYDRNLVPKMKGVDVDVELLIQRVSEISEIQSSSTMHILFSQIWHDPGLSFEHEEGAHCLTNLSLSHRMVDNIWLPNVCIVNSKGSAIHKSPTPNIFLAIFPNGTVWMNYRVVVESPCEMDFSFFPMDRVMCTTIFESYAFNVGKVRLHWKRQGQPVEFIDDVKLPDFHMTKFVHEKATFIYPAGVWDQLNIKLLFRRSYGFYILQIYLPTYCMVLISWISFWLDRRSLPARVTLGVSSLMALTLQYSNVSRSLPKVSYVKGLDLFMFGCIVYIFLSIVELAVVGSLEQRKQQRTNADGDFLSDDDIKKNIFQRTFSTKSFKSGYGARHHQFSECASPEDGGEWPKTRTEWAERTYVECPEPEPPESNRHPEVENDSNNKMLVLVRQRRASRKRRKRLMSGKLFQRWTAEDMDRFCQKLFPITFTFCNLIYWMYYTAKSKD
Test: Paralysis assay, TA quad expressing C. elegans LGC-55
readout-type: EC50

[ask] Reported EC50, compound `NCCc1ccc(O)cc1` : ____
[reply] ~100 µM

---

Biological target: H. contortus (Hco) MOD-1 orthologue (Haemonchus contortus, UniProt M9MR50)
Sequence (M9MR50 entry or part of it): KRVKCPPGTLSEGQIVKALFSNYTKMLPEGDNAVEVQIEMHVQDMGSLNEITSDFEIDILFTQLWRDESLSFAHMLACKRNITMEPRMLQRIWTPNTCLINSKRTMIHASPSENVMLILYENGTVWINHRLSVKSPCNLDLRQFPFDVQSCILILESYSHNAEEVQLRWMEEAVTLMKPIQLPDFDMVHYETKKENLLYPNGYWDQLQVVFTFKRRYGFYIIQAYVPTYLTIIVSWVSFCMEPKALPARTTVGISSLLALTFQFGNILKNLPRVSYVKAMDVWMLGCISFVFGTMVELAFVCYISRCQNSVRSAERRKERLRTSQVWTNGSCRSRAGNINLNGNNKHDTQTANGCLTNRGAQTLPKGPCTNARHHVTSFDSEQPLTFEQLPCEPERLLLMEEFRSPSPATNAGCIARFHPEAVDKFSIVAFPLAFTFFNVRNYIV
Assay: in vivo
readout-type: EC50

[ask] Reported EC50, compound NCCc1c[nH]c2ccc(O)cc12 [5-HT, Serotonin] : ____
[reply] ~200 µM
